System: Avian myeloblastosis virus
Test Details: Inhibition of AMV reverse transcriptase activity assessed as incorporation of dGMP in poly(rC)-oligo(dG) at 10 uM
Parameters: scale not given: the % may be the effect or the level left
Measurement Kind: Activity (%)
Answers are plain numbers, in %.

Completed entries (count: 3):
Compound	Data Value
O=C(O[C@H]1O[C@@H]2COC(=O)c3cc(O)c(O)c(O)c3-c3c(cc(O)c(O)c3O)C(=O)O[C@H]2[C@@H]2OC(=O)c3cc(O)c(O)c(O)c3-c3c(cc(O)c(O)c3O)C(=O)O[C@@H]12)c1cc(O)c(O)c(Oc2c(C(=O)O[C@H]3O[C@@H]4COC(=O)c5cc(O)c(O)c(O)c5-c5c(cc(O)c(O)c5O)C(=O)O[C@H]4[C@@H]4OC(=O)c5cc(O)c(O)c(O)c5-c5c(cc(O)c(O)c5O)C(=O)O[C@@H]34)cc(O)c(O)c2O)c1	7
O=C1OC[C@H]2OC(O)[C@@H]3OC(=O)c4cc(O)c(O)c(O)c4-c4c(cc(O)c(O)c4O)C(=O)O[C@H]3[C@@H]2OC(=O)c2cc(O)c(O)c(O)c2-c2c1cc(O)c(O)c2O (some centres undefined)	41
COc1cc2c[n+](C)c3c4cc5c(cc4ccc3c2cc1OC)OCO5	88

# evaluate next
### Prompt Requested field: Activity. Item: `O=C[C@@H]1OC(=O)c2c3c(O)c(O)c(O)c2-c2c(cc(O)c(O)c2O)C(=O)O[C@H]1[C@@H]1OC(=O)c2c(c(O)c(O)c(O)c2-c2c(cc(O)c(O)c2O)C(=O)O[C@H]1COC(=O)c1cc(O)c(O)c(O)c1)O[C@H]1[C@@H]2OC(=O)c4cc(O)c(O)c(O)c4-c4c(cc(O)c(O)c4O)C(=O)O[C@H]2[C@H](OC(=O)c2cc(O)c(O)c(O)c2)O[C@@H]1CO3`
### Response 22

###

System: Avian myeloblastosis virus
Test Details: Inhibition of AMV reverse transcriptase activity assessed as incorporation of dTMP in poly(rA)-oligo(dT) at 10 uM
Parameters: scale not given: the % may be the effect or the level left
Measurement Kind: Activity (%)
Answers are plain numbers, in %.

Completed entries (count: 2):
Smiles Structure	Data Value
O=C(O)c1cc(O)c(O)c(O)c1	75
O=C(O[C@H]1O[C@@H]2COC(=O)c3cc(O)c(O)c(O)c3-c3c(cc(O)c(O)c3O)C(=O)O[C@H]2[C@@H]2OC(=O)c3cc(O)c(O)c(O)c3-c3c(cc(O)c(O)c3O)C(=O)O[C@@H]12)c1cc(O)c(O)c(Oc2c(C(=O)O[C@H]3O[C@@H]4COC(=O)c5cc(O)c(O)c(O)c5-c5c(cc(O)c(O)c5O)C(=O)O[C@H]4[C@@H]4OC(=O)c5cc(O)c(O)c(O)c5-c5c(cc(O)c(O)c5O)C(=O)O[C@@H]34)cc(O)c(O)c2O)c1	20

# evaluate next
### Prompt Requested field: Activity. Item: `O=C1OC[C@H]2O[C@@H](O)[C@H](O)[C@@H](O)[C@@H]2OC(=O)c2cc(O)c(O)c(O)c2-c2c(O)c(O)c3oc(=O)c4c(c(O)c(O)c5oc(=O)c2c3c54)-c2c1cc(O)c(O)c2O`
### Response 35

###

Test system: Avian myeloblastosis virus
Test Details: Inhibition of AMV reverse transcriptase activity assessed as incorporation of dTMP in poly(rA)-oligo(dT) at 100 uM
Set-up: scale not given: the % may be the effect or the level left
Measurement Kind: Activity (%)
Numbers only, in %.

Smiles Structure	Activity (%)
O=C[C@@H]1OC(=O)c2c3c(O)c(O)c(O)c2-c2c(cc(O)c(O)c2O)C(=O)O[C@H]1[C@@H]1OC(=O)c2c(c(O)c(O)c(O)c2-c2c(cc(O)c(O)c2O)C(=O)O[C@H]1COC(=O)c1cc(O)c(O)c(O)c1)O[C@H]1[C@@H]2OC(=O)c4cc(O)c(O)c(O)c4-c4c(cc(O)c(O)c4O)C(=O)O[C@H]2[C@H](OC(=O)c2cc(O)c(O)c(O)c2)O[C@@H]1CO3	5
O=C1O[C@@H]2[C@@H](OC(=O)c3cc(O)c(O)c(O)c3-c3c1cc(O)c(O)c3O)[C@H](O)O[C@@H]1COC(=O)c3cc(O)c(O)c(O)c3-c3c(O)c(O)c4oc(=O)c5c(c(O)c(O)c6oc(=O)c3c4c65)-c3c(cc(O)c(O)c3O)C(=O)O[C@@H]21	11
O=C(O[C@@H]1O[C@@H]2COC(=O)c3cc(Oc4c(C(=O)O[C@@H]5O[C@@H]6COC(=O)c7cc(O)c(O)c(O)c7-c7c(cc(O)c(O)c7O)C(=O)O[C@H]6[C@H](OC(=O)c6cc(O)c(O)c(O)c6)[C@H]5OC(=O)c5cc(O)c(O)c(O)c5)cc(O)c(O)c4O)c(O)c(O)c3-c3c(cc(O)c(O)c3O)C(=O)O[C@H]2[C@H](OC(=O)c2cc(O)c(O)c(O)c2)[C@H]1OC(=O)c1cc(O)c(O)c(O)c1)c1cc(O)c(O)c(O)c1	5

# map each molecule to its Activity
1. O=C(O)c1cc(O)c(O)c(O)c1
2. O=C[C@H](OC(=O)c1cc(O)c(O)c(O)c1)[C@@H](OC(=O)c1cc(O)c(O)c(O)c1)[C@@H]1OC(=O)c2cc(O)c(O)c(O)c2-c2c(cc(Oc3c(C(=O)O[C@@H](C=O)[C@@H](OC(=O)c4cc(O)c(O)c(O)c4)[C@@H]4OC(=O)c5cc(O)c(O)c(O)c5-c5c(cc(O)c(O)c5O)C(=O)OC[C@H]4O)cc(O)c(O)c3O)c(O)c2O)C(=O)OC[C@H]1O
3. O=C(O[C@@H]1O[C@@H]2COC(=O)c3cc(O)c(O)c(O)c3-c3c(cc(O)c(O)c3O)C(=O)O[C@H]2[C@H](OC(=O)c2cc(O)c(O)c(O)c2)[C@H]1OC(=O)c1cc(O)c(O)c(O)c1)c1cc(O)c(O)c(Oc2c(C(=O)O[C@H]3O[C@@H]4COC(=O)c5cc(O)c(O)c(O)c5-c5c(cc(O)c(O)c5O)C(=O)O[C@H]4[C@H](OC(=O)c4cc(O)c(O)c(O)c4)[C@H]3OC(=O)c3cc(O)c(O)c(O)c3)cc(O)c(O)c2O)c1
4. O=C(OC[C@H]1O[C@@H](OC(=O)c2cc(O)c(O)c(O)c2)[C@H](OC(=O)c2cc(O)c(O)c(O)c2)[C@@H](OC(=O)c2cc(O)c(O)c(O)c2)[C@@H]1OC(=O)c1cc(O)c(O)c(O)c1)c1cc(O)c(O)c(O)c1

### Response
75
6
4
25
